Test system: NL4-3 strain of HIV-1
ASSAY: microbe, parasite or virus in culture
Format: cell-based
CONDITION_INFO: Human immunodeficiency virus 1, NL43, 120 h; concentration leading to 50% of cyto-protection; MT4 cells infected with NL4.3 virus; 5 days incubation; CellTiter-Glo; read-out: EC50
Form field: EC50 (one value per entry).
Give the value in µM but do not write µM after it.

Cc1sc(C)c(C(OC(C)(C)C)C(=O)O)c1-c1ccc2c(c1)CCCC2 (stereo not drawn) [Example 39]
41
Cc1sc(C)c(C(OC(C)(C)C)C(=O)O)c1-c1ccc2c(c1)CCCO2 (stereo not drawn) [Example 17]
26
Cc1sc(C)c(C(OC(C)(C)C)C(=O)O)c1C1=CCCCCC1 (stereo not drawn) [Example 31]
29

Now look at this entry.
Note to self: EC50 recorded for Cc1cccc2c1C(c1ccc3c(c1)CCCO3)=C(C(OC(C)(C)C)C(=O)O)S2(=O)=O (stereo not drawn) [Example 24] was 11
